B1: HDV Ribozyme (parent)
chain: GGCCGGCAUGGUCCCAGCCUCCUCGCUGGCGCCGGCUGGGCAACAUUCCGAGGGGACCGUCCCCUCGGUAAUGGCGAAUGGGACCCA

variants of: B1; test: self-cleavage, relative activity (ratio to wild type); higher = more cleavage; co-transcriptional
QUANTITY: self-cleavage

>>> df
   variant_code  test_value
0     A45C A56G       0.615
1     A42U C62U       0.742
2     A56C G67A        1.05
3     C24G U79G           0
4     A45G G80C       0.415
5     C26G A42G       0.639
6     G73C G81A      0.0817
